system: MDA-MB-468 complex spheroids with HUVEC/MSC, viability; experiment: Anticancer human tumor MDA-MB-468 cell line growth inhibition; settings: second compound 0.316 µM; first compound 0.1 µM; stronger effect = lower value;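 also: spheroids exposed to agents for seven days; 100% = DMSO vehicle control viability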
OBSERVABLE: viability, T/C

// known answers, use as guide
>>> result("COc1ccc([C@@H](O)c2cc(-c3ncnc4cc(N5CCOCC5)ccc34)c(F)cc2Cl)nn1 + NC1CCC(NC2CC2c2ccccc2)CC1")
"83.7%"
>>> result("CC(C)c1c(-c2ccccc2)nc2c(C#N)c[nH]n2c1=O + NC1CC1c1ccc(-c2cccc(O)c2)cc1")
"82.6%"
>>> result("COc1cc(Nc2ncc3c(n2)-c2ccc(Cl)cc2C(c2c(F)cccc2OC)=NC3)ccc1C(=O)O + NC1CCC(NC2CC2c2ccccc2)CC1")
"8.6%"

Task item: What measured viability, T/C goes with CC1COCCN1c1cc(-c2ccnn2C)c2ccnc(-c3ccn[nH]3)c2n1 (centres undefined) + NC1CC1c1ccc(-c2cccc(O)c2)cc1 ?
Reply: 7.28%

====

tested on: MDA-MB-468 complex spheroids with HUVEC/MSC, viability; experiment: Anticancer human tumor MDA-MB-468 cell line growth inhibition; conditions: second compound 1 µM; first compound 0.1 µM; active = viability on the fitted dose curve at most 10% of control; inactive = the rest;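 also: spheroids exposed to agents for seven days; 100% = DMSO vehicle control viability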
Tick one outcome: 1 (active), -1 (inactive)

Below are worked cases with known answers.
>>> assigned_category("O=C(c1cc(Cc2n[nH]c(=O)c3ccccc23)ccc1F)N1CCN(C(=O)C2CC2)CC1 + NC1CC1c1ccc(-c2cccc(O)c2)cc1")
-1
>>> assigned_category("COc1ccc([C@@H](O)c2cc(-c3ncnc4cc(N5CCOCC5)ccc34)c(F)cc2Cl)nn1 + NC1CC1c1ccc(-c2cccc(O)c2)cc1")
-1

Task item: How did this test come out for CC1COCCN1c1cc(-c2ccnn2C)c2ccnc(-c3ccn[nH]3)c2n1 (centres undefined) + NC1CCC(NC2CC2c2ccccc2)CC1 ?
Reply: -1

Task item: For CC(C)c1c(-c2ccccc2)nc2c(C#N)c[nH]n2c1=O + NC1CCC(NC2CC2c2ccccc2)CC1 then?
Reply: -1

Task item: For CC1COCCN1c1cc(C2(S(C)(=N)=O)CC2)nc(-c2ccnc3[nH]ccc23)n1 (centres undefined) + NC1CC1c1ccc(-c2cccc(O)c2)cc1 then?
Reply: -1

====

tested on: MDA-MB-468 complex spheroids with HUVEC/MSC, viability; assay: Anticancer human tumor MDA-MB-468 cell line growth inhibition; settings: second compound 1 µM; first compound 0.3 µM; stronger effect = lower value;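 also: spheroids exposed to agents for seven days; 100% = DMSO vehicle control viability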
OBSERVABLE: viability, T/C

// known answers, use as guide
>>> result("COc1cc(C2c3cc4c(cc3C(OC3OC5COC(C)OC5C(O)C3O)C3COC(=O)C23)OCO4)cc(OC)c1O (stereo not drawn) + NC1CCC(NC2CC2c2ccccc2)CC1")
"13.8%"
>>> result("CCN(c1cc(-c2ccc(CN3CCOCC3)cc2)cc(C(=O)NCc2c(C)cc(C)[nH]c2=O)c1C)C1CCOCC1 + NC1CC1c1ccc(-c2cccc(O)c2)cc1")
"41.7%"

Attention now shifts to the item below.
Task item: What measured viability, T/C goes with CCN(c1cc(-c2ccc(CN3CCOCC3)cc2)cc(C(=O)NCc2c(C)cc(C)[nH]c2=O)c1C)C1CCOCC1 + NC1CCC(NC2CC2c2ccccc2)CC1 ?
Reply: 87.4%

====

test system: MDA-MB-468 complex spheroids with HUVEC/MSC, viability; assay: Anticancer human tumor MDA-MB-468 cell line growth inhibition; details: second compound 0.1 µM; first compound 0.00949 µM; active = viability on the fitted dose curve at most 10% of control; inactive = the rest;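 also: spheroids exposed to agents for seven days; 100% = DMSO vehicle control viability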
Tick one outcome: active, inactive

>>> assigned_category("CCc1c2c(nc3ccc(O)cc13)-c1cc3c(c(=O)n1C2)COC(=O)[C@]3(O)CC + NC1CCC(NC2CC2c2ccccc2)CC1")
"active"
>>> assigned_category("Nc1ccn(C2OC(CO)C(O)C2(F)F)c(=O)n1 (stereo not drawn) + NC1CCC(NC2CC2c2ccccc2)CC1")
"active"
>>> assigned_category("NS(=O)(=O)OCC1CC(n2ccc3c(NC4CCc5ccccc54)ncnc32)CC1O (stereo not drawn) + NC1CC1c1ccc(-c2cccc(O)c2)cc1")
"inactive"
>>> assigned_category("NS(=O)(=O)OCC1CC(n2ccc3c(NC4CCc5ccccc54)ncnc32)CC1O (stereo not drawn) + NC1CCC(NC2CC2c2ccccc2)CC1")
"inactive"
>>> assigned_category("Nc1ccccc1NC(=O)c1ccc(CNC(=O)OCc2cccnc2)cc1 + NC1CCC(NC2CC2c2ccccc2)CC1")
"inactive"

Task item: How did this test come out for Nc1ccn(C2OC(CO)C(O)C2(F)F)c(=O)n1 (stereo not drawn) + NC1CC1c1ccc(-c2cccc(O)c2)cc1 ?
Reply: active

Task item: For O=C(C=Cc1cccc(S(=O)(=O)Nc2ccccc2)c1)NO + NC1CCC(NC2CC2c2ccccc2)CC1 then?
Reply: inactive

Task item: For Nc1ncn(C2CC(O)C(CO)S2)c(=O)n1 (stereo not drawn) + NC1CC1c1ccc(-c2cccc(O)c2)cc1 then?
Reply: inactive
